# testTarget: T1, human complement factor D purified from serum (human, UniProt P00746 26-253)
# T1 construct: serum-purified (CompTech); also called hCFD-Comptech; CFD
# T1 sequence (P00746 26-253): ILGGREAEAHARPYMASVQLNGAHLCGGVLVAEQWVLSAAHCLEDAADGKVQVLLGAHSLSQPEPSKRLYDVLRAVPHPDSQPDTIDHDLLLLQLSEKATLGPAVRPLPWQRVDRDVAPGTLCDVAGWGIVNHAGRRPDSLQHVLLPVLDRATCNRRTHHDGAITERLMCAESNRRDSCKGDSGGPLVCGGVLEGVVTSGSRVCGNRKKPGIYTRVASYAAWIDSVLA
reportedMetric: Kd

{"columns": ["binder", "reportedMetric", "observed"],
 "data": [
  ["KCD042 (antibody, V domains shown, chimeric) VH: EVQLQQSGAELVKPGASVRLSCTASGFNIKHTYIHWVSQRPEQGLEWIGKIDPANGNTKYDPKFQGKATITADTSSNTAYLQLSSLTSEDTAVYYCVNAMEYWGQGTSVTVSS VL: QSVLTQSPAIMSASPGEKVTMTCSANSSVSDMYWFQQRPGSSPRLLIYDTSNLASGVPVRFSGSGSGTSYSLTISRMEAEDAATYYCQQWSTYPWTFGGGTKLEIK", "Kd", "1090 pM"],
  ["KCD136 (antibody, V domains shown, chimeric) VH: EVQLQQSVAELVRPGASVKLSCSASGFNIKNTYMHWVNQRPEQGLEWIGRIDPANGITKYAPNFQGKATITADTSSNTAYLQLSNLTSEDTAIYYCTRAMDYWGQGTSVTVSS VL: QIVLTQSPAIMSASPGEKVTMTCSASSSVSYMYWYQQKPGSSPRLLIYDISNLASGVPVRFSGSGSGTSYSLTISRMEAEDAATYYCQQWDTYPWTFGGGTKLEIK", "Kd", "587 pM"]
]}

Lookup: // returns reported Kd for input KCD214 (antibody, V domains shown, chimeric) VH: EVQLQQSVAEFVRPGASVKLSCTASGFNIKNTYMHWVKQRPEQGLEWIGRIDPANGNTEYAPKFQGKATITADTSSNTAYLQLSSLTSEDTAIYYCALYDYDGYWGQGTTLTVSS VL: EIVLTQSPALMAASPGEKVTITCRVSSSISSSSLHWYQQKSGTSPKPWIYGTSNLASGVPVRFSGSRSGTSYSLTISSMEAEDAATYYCQQWSDYPWTFGGGTKLEIK
Found: 245 pM
